Listing: protein stability index of selected variants
B1: TMEM175 (parent)
chain: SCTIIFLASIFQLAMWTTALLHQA

- Variants of: B1
- METHOD SUMMARY: protein stability index of a GFP-peptide fusion (GPS, HEK-293T) (PSI 1-6); higher = more stable;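 note: lentivirally expressed fusions sorted by FACS into six bins by GFP to DsRed ratio, PSI derived from sequencing read proportions per bin multiplied by bin number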
- SETTINGS: c terminus: a fixed tail appended
Number only, please.

L21E
2.55
F11N
2.97
L13M
2.97
T3S
2.57
L13E
2.24

GET /value?item= M15S &field=protein stability index returns 2.48

variant I5A , protein stability index observed: 2.65

// protein stability index lookup, variant = M15Y , result: 2.97
